- experimental_system: PIK3CA (human)
- method: Inhibition of A2780 Cell Proliferation
reported_endpoint: EC50

compound: Nc1ncc(-c2ccc3nc(NC(=O)C4CCN4)cn3c2)nc1OCC(F)(F)F (stereo unspecified)
EC50: < 10 µM

Give the measured EC50 of "CC(C)C(=O)Nc1cn2cc(-c3cnc(N)c(OCC(F)(F)F)n3)ccc2n1" .
< 10 µM

Give the measured EC50 of "CC(=O)Nc1cn2nc(-c3cnc(N)c(C(=O)O)c3)ccc2n1" .
< 25 µM

Give the measured EC50 of "CC(C)(C)OC(=O)N1CC(C(=O)Nc2cn3nc(-c4cnc(N)c(C(F)(F)F)c4)ccc3n2)C1" .
< 10 µM

Give the measured EC50 of "CC(=O)Nc1cn2nc(-c3cnc(N)c(OC(F)F)c3)ccc2n1" .
< 1 µM

Give the measured EC50 of "CC(=O)Nc1cn2cc(-c3cnc(N)cc3F)ccc2n1" .
< 25 µM

Give the measured EC50 of "Nc1ncc(-c2ccc3nc(NC(=O)CN4CCCCC4)cn3c2)cc1C(F)(F)F" .
< 10 µM

Give the measured EC50 of "CCOC(=O)CC(=O)Nc1cn2cc(-c3cnc(N)c(C(F)(F)F)c3)ccc2n1" .
< 10 µM

Give the measured EC50 of "CC(=O)Nc1cn2nc(-c3cnc(N)c(-c4ccn(C)n4)c3)ccc2n1" .
< 1 µM

Give the measured EC50 of "CCN1CCC(OCC(=O)Nc2cn3cc(-c4cnc(N)c(C(F)(F)F)c4)ccc3n2)CC1" .
< 10 µM

Give the measured EC50 of "COc1ccccc1-c1cc(-c2ccc3nc(NC(C)=O)cn3n2)cnc1N" .
< 10 µM

Give the measured EC50 of "CC(=O)Nc1cn2nc(-c3cnc(N)c(C(=O)NCCN4CCCC4)c3)ccc2n1" .
< 10 µM

Give the measured EC50 of "COC[C@@H]1CCCN1C(=O)Nc1cn2cc(-c3cnc(N)c(C(F)(F)F)c3)ccc2n1" .
< 25 µM

Give the measured EC50 of "CC(=O)Nc1nc2ccc(-c3cnc(N)c(C(=O)N4CCOCC4)c3)cc2s1" .
< 10 µM

Give the measured EC50 of "CC(=O)Nc1cn2cc(-c3cnc(N)c(C(=O)N4CCN(C(=O)OC(C)(C)C)CC4)c3)ccc2n1" .
< 25 µM

Give the measured EC50 of "CC(=O)Nc1cn2cc(-c3cnc(N)c(C)c3)ccc2n1" .
< 10 µM

Give the measured EC50 of "COc1cc(-c2ccc3nc(NC(C)=O)cn3c2)c(C)nc1N" .
< 10 µM

Give the measured EC50 of "CC(=O)Nc1cn2nc(-c3cnc(N)c(-c4ccc(C(F)(F)F)cc4)c3)ccc2n1" .
< 1 µM

Give the measured EC50 of "CC(=O)Nc1cn2cc(-c3cnc(N)c(-c4cccc(OC(F)(F)F)c4)c3)ccc2n1" .
< 1 µM

Give the measured EC50 of "CC(=O)Nc1cn2cc(-c3cnc(N)c(C)n3)ccc2n1" .
< 10 µM

Give the measured EC50 of "CC(=O)Nc1cn2cc(-c3cnc(N)c(Cl)c3)ccc2n1" .
< 10 µM

Reference source for all entries: the Kinase Knowledgebase extract (Sharma et al. 2016)
